- Test system: L1210 leukemia ip in BDF1 mice, survival T/C
- Method summary: NCI In Vivo Anticancer Drug Screen. Data for tumor model L1210 Leukemia (intraperitoneal) in B6D2F1 (BDF1) mice
- Assay context: endpoint: mean survival time; dose: 200.0 mg/kg/injection; schedule: Q04DX003 (ip); vehicle: Klucel (hydroxypropylcellulose) (HPC); higher = longer survival
Toxic doses and inconclusive results are not listed. Peptide text beside a SMILES is read from it. * marks the point of attachment. Cbz = O=C(OCc1ccccc1)*; OBn = c1ccc(CO*)cc1; Bn = c1ccc(C*)cc1
Quantity kind: T/C

For the compound CC1CCCC(C)N1NC(=O)NCCCl (stereo not drawn) , what T/C is on record?
100 % of control

For the compound CCCCCCCCCCCCCCCCN(C(C)c1ccccc1)S(=O)(=O)c1ccc(OC)c(N)c1 (stereo not drawn) , what T/C is on record?
98 % of control

For the compound CC1(CCN2CCC3(CC2)C(=O)NCN3c2ccccc2)Oc2ccccc2O1 , what T/C is on record?
111 % of control

For the compound CC(C)(C)N1C(=O)N(C(C)(C)C)C1=O , what T/C is on record?
102 % of control

For the compound c1ccc(-c2csc(NNc3nc(-c4ccccc4)cs3)n2)cc1 , what T/C is on record?
90 % of control

For the compound c1ccc(C2=NNC(c3ccccc3)=C(c3ccccc3)C2)cc1 , what T/C is on record?
100 % of control

For the compound O=CNNc1ccccc1 , what T/C is on record?
95 % of control

For the compound CC1=C2[C@H]3OC(=O)[C@@H](C)[C@@H]3CC[C@@]2(C)C=CC1=O , what T/C is on record?
103 % of control

For the compound CC(C)OC(=O)Nc1ccc(Cl)cn1 , what T/C is on record?
101 % of control

For the compound COC(=O)c1c(I)cccc1[N+](=O)[O-] , what T/C is on record?
103 % of control

For the compound C=CCc1c(C)nc(N)[nH]c1=O , what T/C is on record?
107 % of control

For the compound O=C(O)/C=C/C(=O)Nc1cc(Cl)cc2c1-c1c(Cl)cc(Cl)cc1C2=O , what T/C is on record?
98 % of control

For the compound N#CCCN(C(=O)COc1ccc(Cl)cc1Cl)C1CCCCC1 , what T/C is on record?
100 % of control

For the compound CCSC(C(O)C(O)C(O)C(O)CO)n1ccc(=O)[nH]c1=O (stereo not drawn) , what T/C is on record?
93 % of control

For the compound O=C(O)CNS(=O)(=O)CCN1C(=O)c2ccccc2C1=O , what T/C is on record?
92 % of control

For the compound O=S1(=O)CC(c2ccc(F)cc2)Nc2ccccc21 (stereo not drawn) , what T/C is on record?
102 % of control

For the compound O=C1OCCC1n1cc(F)c(=O)[nH]c1=O (stereo not drawn) , what T/C is on record?
98 % of control

For the compound COc1c2c(cc3c(C)cc(=O)n(C)c13)c(C)cc(=O)n2C , what T/C is on record?
92 % of control

For the compound Cc1cc(-c2ccccc2)c(-c2ccccn2)c2ccccc12 , what T/C is on record?
91 % of control

For the compound O=c1c2ccccc2ccc2ccccc12 , what T/C is on record?
103 % of control

For the compound CC(C)NS(=O)(=O)c1ccc(Cl)cc1 , what T/C is on record?
102 % of control

For the compound CC1C(C(C)(C)C)N1C (stereo not drawn) , what T/C is on record?
110 % of control

For the compound CCCCCCCCCCCCCCOc1ccc(C(=S)N2CCOCC2)cc1OC , what T/C is on record?
100 % of control

For the compound CCCCOP(=O)(CCl)OCCCC , what T/C is on record?
97 % of control

For the compound Cc1cccc(CO)c1NC(=O)NCCCl , what T/C is on record?
110 % of control

For the compound Cc1c(C)c2c(Cl)c3ccccc3nc2c2ccccc12 , what T/C is on record?
112 % of control

For the compound O=[N+]([O-])c1cc(CCl)ccc1CCl , what T/C is on record?
98 % of control

For the compound O=C(Cn1ccc(=O)[nH]c1=O)Nc1ccc(O)c(C(=O)O)c1 , what T/C is on record?
100 % of control

For the compound CC1(C)CC(=O)c2c(cc3oc(=O)ccc3c2O)O1 , what T/C is on record?
105 % of control

For the compound O=[N+]([O-])c1cnc2ccnn2c1 , what T/C is on record?
92 % of control

For the compound O=C(NCCc1c[nH]c2ccccc12)C(=O)NCCc1c[nH]c2ccccc12 , what T/C is on record?
93 % of control

For the compound O=C(Nc1ccc([N+](=O)[O-])cc1Cl)Oc1cccc2ccccc12 , what T/C is on record?
105 % of control

For the compound COc1cccc2c1N=c1c(Cl)c3c(c(Cl)c1O2)=Nc1c(OC)cccc1O3 , what T/C is on record?
102 % of control

For the compound COc1ccc(OC(=O)OCc2ccccc2)cc1 , what T/C is on record?
101 % of control

For the compound Cc1ccc(SC2CC3CC2C2COCC32)cc1 (stereo not drawn) , what T/C is on record?
98 % of control

For the compound CCNC(=O)C(=O)c1ccccc1NC(C)=O , what T/C is on record?
100 % of control

For the compound O=C(Nc1ccc([N+](=O)[O-])cc1)Nc1ccc([N+](=O)[O-])cc1 (tested in a mixture with another compound) , what T/C is on record?
100 % of control

For the compound CN(C)c1ccc(CN2CCCN(Cc3ccc(N(C)C)cc3)C2c2ccccc2O)cc1 , what T/C is on record?
100 % of control

For the compound CC(C)C(NC(=O)C(CSCc1ccccc1)NC(=O)OCc1ccccc1)C(=O)OCc1ccccc1 (stereo not drawn) (Cbz-Cys(Bn)-Val-OBn; configuration not given here) , what T/C is on record?
93 % of control

For the compound Cc1cccc(C)c1N1C(=O)CCC1=O , what T/C is on record?
97 % of control

For the compound CCOC(=O)/C=C(\c1ccccc1)c1ccc([N+](=O)[O-])cc1 , what T/C is on record?
102 % of control

For the compound Cc1cc(NC(=O)Nc2cc(F)ccc2F)no1 , what T/C is on record?
103 % of control

For the compound COC(=O)c1cccc(C)c1NC(=O)NCCCl , what T/C is on record?
96 % of control

For the compound O=S1(=O)C(C(O)(c2ccccc2)c2ccccc2)CCC1C(O)(c1ccccc1)c1ccccc1 (stereo not drawn) , what T/C is on record?
93 % of control

For the compound Clc1ccccc1CC12CCCCC1N2 (stereo not drawn) , what T/C is on record?
90 % of control

For the compound CC(=O)OC1CCC2(C)C(CCC3C2CCC2(C)C3CC(OC(C)=O)C2C(C)C2=NCC(C)CC2)C1 (stereo not drawn) , what T/C is on record?
98 % of control

For the compound CN(C)c1ccc(C(C[N+](=O)[O-])(c2ccc(N(C)C)cc2)c2ccc(N(C)C)cc2)cc1 , what T/C is on record?
93 % of control

For the compound CC1(C)C(OC=O)C(C)(C)C1OC=O (stereo not drawn) , what T/C is on record?
98 % of control
